Molecular target: T1, nuclear cap-binding complex (CBC: CBP80ΔNLS + CBP20), human (human, UniProt Q09161 20-790; P52298 1-156)
T1 sequence 1: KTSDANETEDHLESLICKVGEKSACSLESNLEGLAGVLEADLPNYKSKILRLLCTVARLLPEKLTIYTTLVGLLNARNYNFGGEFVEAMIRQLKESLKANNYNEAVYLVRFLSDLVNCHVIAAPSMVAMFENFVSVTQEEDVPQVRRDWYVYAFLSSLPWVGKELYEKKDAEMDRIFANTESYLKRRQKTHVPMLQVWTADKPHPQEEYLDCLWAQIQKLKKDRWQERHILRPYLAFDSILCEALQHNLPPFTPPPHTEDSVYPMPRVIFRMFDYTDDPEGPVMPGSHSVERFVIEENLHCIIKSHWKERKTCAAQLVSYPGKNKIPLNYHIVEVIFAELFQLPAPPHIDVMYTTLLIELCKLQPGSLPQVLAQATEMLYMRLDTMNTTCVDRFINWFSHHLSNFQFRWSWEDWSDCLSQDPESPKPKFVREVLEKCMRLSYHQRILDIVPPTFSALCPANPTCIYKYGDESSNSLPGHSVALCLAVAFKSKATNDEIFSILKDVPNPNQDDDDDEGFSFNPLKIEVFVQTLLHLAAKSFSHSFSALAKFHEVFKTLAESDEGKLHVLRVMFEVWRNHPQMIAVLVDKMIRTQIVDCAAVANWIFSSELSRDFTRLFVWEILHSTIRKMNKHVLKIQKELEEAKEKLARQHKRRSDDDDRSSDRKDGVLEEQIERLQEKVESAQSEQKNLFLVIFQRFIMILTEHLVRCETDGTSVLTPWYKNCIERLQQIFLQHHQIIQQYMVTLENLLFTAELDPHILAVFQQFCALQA
T1 sequence 2: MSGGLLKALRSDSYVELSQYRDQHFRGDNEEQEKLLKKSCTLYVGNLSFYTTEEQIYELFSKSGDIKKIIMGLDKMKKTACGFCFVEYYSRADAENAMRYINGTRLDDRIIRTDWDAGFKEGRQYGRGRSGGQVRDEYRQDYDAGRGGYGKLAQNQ
Assay: ITC
pKd: −log10 of the molar value.
ATTRIBUTE MEASURED: pKd

BINDER	ENDPOINT VALUE
His-MBP-NCBP3^560-620 (domain or fragment, human, UniProt Q53F19 560-620, looked up) TKKVDHRAPGAEEDDSELQRAWGALIKEKEQSRQKKSRLDNLPSLQIEVSRESSSGSEAES	~6.76

The origin of these recorded values is paper doi:10.1101/2023.07.25.550453.
